# credit: ChEMBL document CHEMBL5252527

Molecular target: Poly [ADP-ribose] polymerase 1 (Mus musculus)
Sequence (P11103 whole entry): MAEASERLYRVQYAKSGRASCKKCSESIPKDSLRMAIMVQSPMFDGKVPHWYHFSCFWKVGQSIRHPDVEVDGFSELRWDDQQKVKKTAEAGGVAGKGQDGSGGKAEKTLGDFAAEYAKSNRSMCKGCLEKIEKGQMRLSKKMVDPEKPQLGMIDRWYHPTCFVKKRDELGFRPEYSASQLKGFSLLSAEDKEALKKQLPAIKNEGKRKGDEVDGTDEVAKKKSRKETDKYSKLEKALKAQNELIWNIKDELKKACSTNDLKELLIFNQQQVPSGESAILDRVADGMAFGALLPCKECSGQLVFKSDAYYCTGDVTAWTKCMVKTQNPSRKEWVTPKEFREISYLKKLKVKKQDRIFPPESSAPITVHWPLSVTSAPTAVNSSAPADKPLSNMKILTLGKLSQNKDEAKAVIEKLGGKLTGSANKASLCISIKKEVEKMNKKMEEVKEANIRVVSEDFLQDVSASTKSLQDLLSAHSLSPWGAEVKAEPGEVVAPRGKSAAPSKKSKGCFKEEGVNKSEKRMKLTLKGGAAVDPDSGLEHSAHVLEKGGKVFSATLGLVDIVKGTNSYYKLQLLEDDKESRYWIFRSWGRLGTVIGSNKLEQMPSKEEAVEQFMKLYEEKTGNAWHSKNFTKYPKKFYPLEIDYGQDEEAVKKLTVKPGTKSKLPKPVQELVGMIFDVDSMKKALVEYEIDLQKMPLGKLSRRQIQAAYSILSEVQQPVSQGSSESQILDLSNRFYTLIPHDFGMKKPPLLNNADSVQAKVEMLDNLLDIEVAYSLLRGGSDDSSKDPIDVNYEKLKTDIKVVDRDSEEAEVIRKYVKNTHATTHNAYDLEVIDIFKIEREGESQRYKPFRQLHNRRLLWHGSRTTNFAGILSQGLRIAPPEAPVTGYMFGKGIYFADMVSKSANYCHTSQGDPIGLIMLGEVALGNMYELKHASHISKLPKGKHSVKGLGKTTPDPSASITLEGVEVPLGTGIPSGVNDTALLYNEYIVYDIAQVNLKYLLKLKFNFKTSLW
Assay: Inhibition of mouse recombinant PARP-1 incubated for 60 mins
VALUE KIND: IC50
Lab note: write values as number then unit, every time.

Item `O=C(Nc1cccc2c(=O)[nH]ccc12)c1ccccc1` has what recorded IC50?
1500 nM

* * *

Experiment: Inhibition of calf thymus […]
Design: species or system Bos taurus
VALUE KIND: IC50 (nM)
Value expressed in nM; do not type the unit.

Consider the molecule `Cc1cccc2c(=O)[nH]c(CCCN3CC=C(c4ccc(F)cc4)CC3)nc12` and give its measured IC50.
167

* * *

Target: Poly [ADP-ribose] polymerase 2 (Homo sapiens)
Sequence (Q9UGN5 whole entry): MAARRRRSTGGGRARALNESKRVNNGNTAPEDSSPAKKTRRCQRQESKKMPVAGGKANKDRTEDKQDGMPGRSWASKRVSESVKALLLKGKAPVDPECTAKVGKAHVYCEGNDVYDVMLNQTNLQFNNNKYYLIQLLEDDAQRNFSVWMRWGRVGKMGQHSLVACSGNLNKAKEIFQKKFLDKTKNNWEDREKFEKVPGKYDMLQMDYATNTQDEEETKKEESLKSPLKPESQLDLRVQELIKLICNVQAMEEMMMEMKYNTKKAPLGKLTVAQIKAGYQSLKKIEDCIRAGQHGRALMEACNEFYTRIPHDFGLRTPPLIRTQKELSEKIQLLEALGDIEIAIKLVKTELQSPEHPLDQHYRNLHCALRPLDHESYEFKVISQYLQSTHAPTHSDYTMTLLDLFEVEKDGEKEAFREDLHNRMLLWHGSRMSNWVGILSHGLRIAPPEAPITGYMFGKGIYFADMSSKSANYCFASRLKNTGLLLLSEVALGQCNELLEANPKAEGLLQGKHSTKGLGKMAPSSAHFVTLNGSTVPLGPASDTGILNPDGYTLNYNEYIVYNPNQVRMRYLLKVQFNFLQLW
Assay: Inhibition of human PARP-2 incubated for 18 to 20 hrs by scintillation proximity assay
VALUE KIND: IC50 (µM)
Form entry: value (µM) — number only.

// lookup IC50 for `Cn1cccc1/C=C1\C(=O)NC(=O)c2ccccc21`
4
